test system: MDA468 (human breast cancer cell); test: Cell proliferation (MTS) assay, MDA468; assay type: cell-based; conditions: Homo sapiens, 72 h, Table 1; three days treatment
readout: IC50

[
  {
    "compound": "COC[C@H]1OC(=O)/C(=C/N2CCC(c3ccccc3)CC2)C2=C(O)C(=O)C3=C([C@H](OC(C)=O)C[C@@]4(C)C3CC[C@@H]4O)[C@]21C (stereo partly drawn)",
    "experimental.system": "MDA468 (human breast cancer cell)",
    "readout": "IC50",
    "result": "2.3 µg/mL"
  },
  {
    "compound": "CCN(C=C1C(=O)OC(COC)C2(C)C1=C(O)C(=O)C1=C2C(OC(C)=O)CC2(C)C(O)CCC12)CCN(CC)CC (stereo not drawn)",
    "experimental.system": "MDA468 (human breast cancer cell)",
    "readout": "IC50",
    "result": "4.1 µg/mL"
  },
  {
    "compound": "CCN(/C=C1/C(=O)O[C@H](COC)[C@@]2(C)C1=C(O)C(=O)C1=C2[C@H](OC(C)=O)C[C@@]2(C)C1CC[C@@H]2OC=O)CC (stereo partly drawn)",
    "experimental.system": "MDA468 (human breast cancer cell)",
    "readout": "IC50",
    "result": "0.4 µg/mL"
  },
  {
    "compound": "COC[C@H]1OC(=O)/C(=C/N2CCN(C)CC2)C2=C(O)C(=O)C3=C([C@H](OC(C)=O)C[C@@]4(C)C3CC[C@@H]4O)[C@]21C (stereo partly drawn)",
    "experimental.system": "MDA468 (human breast cancer cell)",
    "readout": "IC50",
    "result": "2 µg/mL"
  },
  {
    "compound": "COC[C@H]1OC(=O)/C(=C/N2CCN(Cc3ccccc3)CC2)C2=C(O)C(=O)C3=C([C@H](OC(C)=O)C[C@@]4(C)C3CC[C@@H]4O)[C@]21C (stereo partly drawn)",
    "experimental.system": "MDA468 (human breast cancer cell)",
    "readout": "IC50",
    "result": "1.8 µg/mL"
  },
  {
    "compound": "CCN(/C=C1/C(=O)O[C@H](COC)[C@@]2(C)C1=C(O)C(=O)C1=C2[C@H](OC(C)=O)C[C@]2(C)[C@@H](O)CC[C@@H]12)CC",
    "experimental.system": "MDA468 (human breast cancer cell)",
    "readout": "IC50",
    "result": "1 µg/mL"
  }
]

====

target: Human TOR (Homo sapiens); construct: FLAG; test: Human TOR (mTOR) kinase assay, DELFIA format; format: biochemical; conditions: Table 1
readout: log10 IC50 (log10 of the value in nM)

[
  {
    "molecule": "CCC(=O)OC1CC2(C)C(O)CCC2C2=C1C1(C)C(=C(O)C2=O)C(=CN(C)CCN(C)C)C(=O)OC1COC (stereo not drawn) [Compound 49]",
    "log10 IC50": 3.18
  },
  {
    "molecule": "CCCCN(C)/C=C1/C(=O)O[C@H](COC)[C@@]2(C)C1=C(O)C(=O)C1=C2[C@H](OC(C)=O)C[C@@]2(C)C1CC[C@@H]2O (stereo partly drawn) [Compound 8]",
    "log10 IC50": 3.92
  },
  {
    "molecule": "COC[C@H]1OC(=O)/C(=C/N2CCCCC2)C2=C(O)C(=O)C3=C([C@H](OC(C)=O)C[C@@]4(C)C3CC[C@@H]4O)[C@]21C (stereo partly drawn) [Compound 11]",
    "log10 IC50": 3.28
  },
  {
    "molecule": "COC[C@H]1OC(=O)/C(=C/N(C)CCCN(C)C)C2=C(O)C(=O)C3=C([C@H](OC(C)=O)C[C@@]4(C)C3CC[C@@H]4O)[C@]21C (stereo partly drawn) [Compound 5]",
    "log10 IC50": 3.41
  },
  {
    "molecule": "COC[C@H]1OC(=O)/C(=C/Nc2ccccc2)C2=C(O)C(=O)C3=C([C@H](OC(C)=O)C[C@]4(C)[C@@H](O)CC[C@@H]34)[C@]21C [Compound 3]",
    "log10 IC50": 3.96
  },
  {
    "molecule": "COC[C@H]1OC(=O)/C(=C/N2CCN(Cc3ccccc3)CC2)C2=C(O)C(=O)C3=C([C@H](OC(C)=O)C[C@@]4(C)C3CC[C@@H]4O)[C@]21C (stereo partly drawn) [Compound 10]",
    "log10 IC50": 2.95
  },
  {
    "molecule": "CCN(C=C1C(=O)OC(COC)C2(C)C1=C(O)C(=O)C1=C2C(OC(C)=O)CC2(C)C(O)CCC12)CCN(CC)CC (stereo not drawn) [Compound 42]",
    "log10 IC50": 3.17
  },
  {
    "molecule": "COCC1OC(=O)C(=CN(CCC#N)Cc2ccccc2)C2=C(O)C(=O)C3=C(C(OC(C)=O)CC4(C)C(O)CCC34)C21C (stereo not drawn) [Compound 41]",
    "log10 IC50": 2.86
  }
]

====

target: Human TOR (Homo sapiens, UniProt P42345); construct: FLAG; assay: Human TOR (mTOR) kinase assay, DELFIA format; type: biochemical; conditions: Table 2

[
  {
    "compound": "COCC1OC(=O)C(=CN(C)C(C)(C)C)C2=C(O)C(=O)C3=C(C(OC(C)=O)CC4(C)C(O)CCC34)C21C (stereo not drawn) [Compound 20]",
    "readout.relation": ">",
    "IC50 (µM)": 19.3
  },
  {
    "compound": "CCN(CC)CCCN(C=C1C(=O)OC(COC)C2(C)C1=C(O)C(=O)C1=C2C(OC(C)=O)CC2(C)C(O)CCC12)CCS(=O)(=O)c1ccccc1 (stereo not drawn) [Compound 28]",
    "readout.relation": ">",
    "IC50 (µM)": 13.7
  },
  {
    "compound": "COCC1OC(=O)C(=CN(Cc2ccccc2)CC23CCCN(CCC2)C3)C2=C(O)C(=O)C3=C(C(OC(C)=O)CC4(C)C(O)CCC34)C21C (stereo not drawn) [Compound 29]",
    "readout.relation": ">",
    "IC50 (µM)": 14.8
  },
  {
    "compound": "COCC1OC(=O)C(=CN(C)CC(=O)OC(C)(C)C)C2=C(O)C(=O)C3=C(C(OC(C)=O)CC4(C)C(O)CCC34)C21C (stereo not drawn) [Compound 35]",
    "readout.relation": "=",
    "IC50 (µM)": 13.9
  },
  {
    "compound": "COCC1OC(=O)C(=CN2CCN(CCCN3CCOCC3)CC2)C2=C(O)C(=O)C3=C(C(OC(C)=O)CC4(C)C(O)CCC34)C21C (stereo not drawn) [Compound 30]",
    "readout.relation": "=",
    "IC50 (µM)": 1.2
  },
  {
    "compound": "COCC1OC(=O)C(=CN(C)CCCN2CCN(C)CC2)C2=C(O)C(=O)C3=C(C(OC(C)=O)CC4(C)C(O)CCC34)C21C (stereo not drawn) [Compound 26]",
    "readout.relation": "=",
    "IC50 (µM)": 2.33
  }
]

====

test system: LNCaP (human prostate carcinoma); assay: Cell proliferation (MTS) assay, LNCaP; assay type: cell-based; settings: Homo sapiens, LNCaP, 72 h, Table 2; three days treatment
Could you mark each record Yes if its IC50 falls strictly under 0.4 µg/mL, and No if it equals or exceeds it?

[
  {
    "compound": "COC[C@H]1OC(=O)/C(=C\\NCCOCCOCCNC(=O)CCCC[C@H]2SC[C@H]3NC(=O)N[C@H]32)C2=C(O)C(=O)C3=C([C@H](OC(C)=O)C[C@@]4(C)C3CC[C@@H]4O)[C@]21C (stereo partly drawn)",
    "class.assignment": "No"
  },
  {
    "compound": "COCC1OC(=O)C(=CN2CCC2C(=O)O)C2=C(O)C(=O)C3=C(C(OC(C)=O)CC4(C)C(O)CCC34)C21C (stereo not drawn)",
    "class.assignment": "Yes"
  },
  {
    "compound": "COCC1OC(=O)C(=CN(Cc2ccccc2)CC23CCCN(CCC2)C3)C2=C(O)C(=O)C3=C(C(OC(C)=O)CC4(C)C(O)CCC34)C21C (stereo not drawn)",
    "class.assignment": "No"
  },
  {
    "compound": "COCC1OC(=O)C(=CN(C)CCCN2CCN(c3ccc(OC)cc3)CC2)C2=C(O)C(=O)C3=C(C(OC(C)=O)CC4(C)C(O)CCC34)C21C (stereo not drawn)",
    "class.assignment": "No"
  },
  {
    "compound": "COCC1OC(=O)C(=CN2CCOCC2)C2=C(O)C(=O)C3=C(C(OC(C)=O)CC4(C)C(O)CCC34)C21C (stereo not drawn)",
    "class.assignment": "No"
  },
  {
    "compound": "COCC1OC(=O)C(=CN(CCCN(C)C)CCCN(C)C)C2=C(O)C(=O)C3=C(C(OC(C)=O)CC4(C)C(O)CCC34)C21C (stereo not drawn)",
    "class.assignment": "Yes"
  },
  {
    "compound": "COCC1OC(=O)C(=CN2CCN(CCN3CCOCC3)CC2)C2=C(O)C(=O)C3=C(C(OC(C)=O)CC4(C)C(O)CCC34)C21C (stereo not drawn)",
    "class.assignment": "No"
  },
  {
    "compound": "COCC1OC(=O)C(=CN2CCC(C(=O)OC)CC2)C2=C(O)C(=O)C3=C(C(OC(C)=O)CC4(C)C(O)CCC34)C21C (stereo not drawn)",
    "class.assignment": "Yes"
  },
  {
    "compound": "COCC1OC(=O)C(=CN(C)C(C)(C)C)C2=C(O)C(=O)C3=C(C(OC(C)=O)CC4(C)C(O)CCC34)C21C (stereo not drawn)",
    "class.assignment": "Yes"
  },
  {
    "compound": "CCN(C=C1C(=O)OC(COC)C2(C)C1=C(O)C(=O)C1=C2C(OC(C)=O)CC2(C)C(O)CCC12)CCN(C)C (stereo not drawn)",
    "class.assignment": "No"
  }
]
